Tgt: purified recombinant human PHOSPHO1 (Homo sapiens)
Sequence (Q8TCT1 1-292 isoform Q8TCT1-3): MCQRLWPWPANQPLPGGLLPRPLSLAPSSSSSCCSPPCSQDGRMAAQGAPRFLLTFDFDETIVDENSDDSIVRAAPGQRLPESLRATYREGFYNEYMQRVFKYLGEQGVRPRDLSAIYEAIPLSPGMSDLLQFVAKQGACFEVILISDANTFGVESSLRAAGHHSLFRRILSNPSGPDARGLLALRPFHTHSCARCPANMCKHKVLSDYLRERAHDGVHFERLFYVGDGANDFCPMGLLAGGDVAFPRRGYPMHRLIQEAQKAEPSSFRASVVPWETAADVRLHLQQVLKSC
Run Description: PHOSPHO1 inhibition, Biomol Green colorimetric phosphate release assay
Type: biochemical
Measurement Conditions: P-Etn IC50, substrate P-Etn 62.5 μmol/L, pH 6.7, 60 min room temperature
Parameter Measured: pIC50
Notebook: values listed as pIC50 are -log10 of the concentration (mol/L).

Which value of pIC50 has been reported for Cc1c(OCC(F)(F)F)ccnc1C[S+]([O-])c1nc2ccccc2[nH]1 (stereo not shown) in the records?
7.15

Each recorded value in this set is attributed to paper PMC3562655.
